experiment: Selectivity ratio of IC50 for PI3K to IC50 for rat brain mTOR
valueKind: Ratio IC50

Below are worked cases with known answers.
>>> reported("CN1CCN(c2ccc(NC(=O)Nc3ccc(-c4nc(N5C[C@@H]6C[C@H]5CO6)nc(N5C[C@@H]6C[C@H]5CO6)n4)cc3)cc2)CC1")
98
>>> reported("O=C(Nc1ccncc1)Nc1ccc(-c2nc(N3CC4CCC(C3)O4)nc(N3CC4CCC(C3)O4)n2)cc1")
282
>>> reported("FC(F)c1nc2ccccc2n1-c1nc(N2CCOCC2)nc(N2CC3CCC(C2)O3)n1")
0.41
>>> reported("FC(F)c1nc2ccccc2n1-c1nc(N2CC3CCC(C2)O3)nc(N2CC3CCC(C2)O3)n1")
2.8
>>> reported("CN1CCN(c2ccc(NC(=O)Nc3ccc(-c4nc(N5CC6CCC(C5)O6)nc(N5CC6CCC(C5)O6)n4)cc3)cc2)CC1")
51
>>> reported("CN1CCN(c2ccc(NC(=O)Nc3ccc(-c4nc(N5C[C@H]6C[C@@H]5CO6)nc(N5C[C@H]6C[C@@H]5CO6)n4)cc3)cc2)CC1")
14

a = CNC(=O)Nc1ccc(-c2nc(N3CC4CCC(C3)O4)nc(N3CC4CCC(C3)O4)n2)cc1
b = CCNC(=O)Nc1ccc(-c2nc(N3CC4CCC(C3)O4)nc(N3CC4CCC(C3)O4)n2)cc1
Input line: For a and b , which recorded Ratio IC50 is lower? When you have decided, please share the label of that item.
Output line: a
(a: 272, b: 961)
